Sourced from patent US9815851B2

STUDY_SYSTEM: RORγ (UniProt P51449)
EXPERIMENT_NOTES: RORγ Gal4 Reporter Gene Assay in 293T cells (firefly and renilla luciferase)
Format: cell-based, human
SETUP_CONDITIONS: third value of the cell; Gal4 reporter gene assay in 293T cells, renilla normalised luciferase
# pIC50 (REN) per entry
REPORTED_METRIC: pIC50 (REN)

Cc1c(C(=O)NCC(C)(C)O)cc(-c2cc(C(C)(C)C)nc3ccccc23)n1CC1CCCCC1 | 6.3
CC(C)(C)NS(=O)(=O)c1ccc(-c2cc(C(=O)NC3CCOCC3)c(F)n2CC2CCCCC2)cc1C(C)(C)C | 7.5
CNC(=O)C(C)(C)CNC(=O)c1cc(-c2ccc(S(=O)(=O)NC(C)(C)C)c(C(F)(F)F)c2)n(CC2CCCCC2)c1C | 6.8
CCc1cc(-c2cc(C(N)=O)c(C)n2CC2CCCCC2)cc2c1OCC2(C)C | 6.1

----------
# pIC50 (REN) per entry
STUDY_SYSTEM: RORγ (UniProt P51449)
EXPERIMENT_NOTES: RORγ Gal4 Reporter Gene Assay in 293T cells (firefly and renilla luciferase)
Assay type: cell-based, human
SETUP_CONDITIONS: third value of the cell; Gal4 reporter gene assay in 293T cells, renilla normalised luciferase
REPORTED_METRIC: pIC50 (REN)

Cc1c(C(=O)NC2CCOCC2)cc(-c2ccc(S(=O)(=O)NC(C)(C)C)c(C#N)c2)n1CC1CCCCC1 | 6.2
Cc1c(C(=O)NC2CCOCC2)cc(-c2ccc(S(=O)(=O)NC(=O)C(C)(C)C)c(C(F)(F)F)c2)n1CC1CCCCC1 | < 4.7
COC(=O)C(C)(C)CCNC(=O)c1cc(-c2cc(C(C)(C)C)cc(C3(C)CC3)c2)n(CC2CCCCC2)c1F | 6.9
Cc1c(C(=O)NC2C[S+]([O-])C2)cc(-c2cc(C(C)(C)C)cc(C(C)(C)C)c2)n1CC1CCCCC1 (stereo not shown) | 7.0

----------
# pIC50 (FF) per entry
STUDY_SYSTEM: RORγ (UniProt P51449)
EXPERIMENT_NOTES: RORγ Gal4 Reporter Gene Assay in 293T cells (firefly and renilla luciferase)
Assay type: cell-based, human
SETUP_CONDITIONS: second value of the cell; Gal4 reporter gene assay in 293T cells, firefly luciferase
REPORTED_METRIC: pIC50 (FF)

Cc1c(C(=O)NCC(C)(C)CC(N)=O)cc(-c2cc(C(C)(C)C)c3c(c2)C2(CCO3)CC2)n1CC1CCCCC1 | 7.1
Cc1c(C(=O)NC2CCOCC2)cc(-c2ccc(-c3ccnn3C(C)C)c(C(F)(F)F)c2)n1CC1CCCCC1 | 6.6
Cc1c(C(=O)NCC(C)(C)C(=O)NCCCO)cc(-c2cc(C(C)(C)C)c3c(c2)C2(CCO3)CC2)n1CC1CCCCC1 | 8.0
Cc1c(C(N)=O)cc(-c2cc(C(C)(C)C)cc(C3(C)CC3)c2)n1CC1CCCCC1 | 6.3

----------
STUDY_SYSTEM: UniProt:P51449
Sequence (P51449 1-518): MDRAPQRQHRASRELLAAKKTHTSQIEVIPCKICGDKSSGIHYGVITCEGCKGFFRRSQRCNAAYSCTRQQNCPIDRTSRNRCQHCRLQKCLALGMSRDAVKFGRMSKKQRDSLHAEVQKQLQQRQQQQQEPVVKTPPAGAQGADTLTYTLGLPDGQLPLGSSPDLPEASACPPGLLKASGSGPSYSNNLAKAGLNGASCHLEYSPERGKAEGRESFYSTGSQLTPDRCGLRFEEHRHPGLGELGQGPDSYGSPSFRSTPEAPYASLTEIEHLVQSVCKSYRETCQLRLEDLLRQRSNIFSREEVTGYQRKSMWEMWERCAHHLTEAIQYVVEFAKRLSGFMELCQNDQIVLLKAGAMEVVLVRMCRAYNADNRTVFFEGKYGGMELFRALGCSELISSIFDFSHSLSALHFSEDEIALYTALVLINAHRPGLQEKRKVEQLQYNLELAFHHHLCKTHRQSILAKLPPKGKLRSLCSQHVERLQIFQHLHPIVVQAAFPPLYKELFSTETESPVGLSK
EXPERIMENT_NOTES: RORγ Gal4 Reporter Gene Assay in 293T cells (firefly and renilla luciferase)
Type: cell-based, human
SETUP_CONDITIONS: third value of the cell; Gal4 reporter gene assay in 293T cells, renilla normalised luciferase
# pIC50 (REN) per entry
REPORTED_METRIC: pIC50 (REN)

Cc1c(C(=O)NC2COC2)cc(-c2cc(C(C)C)c3c(c2)C(C)(C)N(C(C)C)S3(=O)=O)n1CC1CCCCC1 | 6.9
Cc1c(C(=O)NCCCCCO)cc(-c2cc(C(C)(C)C)cc(C(C)(C)C)c2)n1CC1CCCCC1 | 7.3
Cc1c(C(=O)N[C@H]2CC[C@@H](C(=O)O)CC2)cc(-c2cc(C(C)(C)C)c3c(c2)C2(CCO3)CC2)n1CC1CCCCC1 | 6.7
COC(C)(C)c1cc(-c2c(Cl)c(C(=O)N[C@H]3C[C@H](C(=O)O)C3)c(C)n2CC2CCCCC2)cc(C2(C)CC2)c1 | 7.1
Cc1c(C(=O)NC2CCOCC2)cc(-c2ccc(S(=O)(=O)NC(C)(C)CCF)c(C(F)(F)F)c2)n1CC1CCCCC1 | 8.2
Cc1c(C(=O)NCC(C)(C)O)cc(-c2cn(S(=O)(=O)N3CCCCC3)c3ccccc23)n1CC1CCCCC1 | 7.5
Cc1c(C(=O)NC2(C#N)CC2)cc(-c2cc(C(C)(C)C)cc(C(C)(C)C)c2)n1CC1CCCCC1 | 6.5

----------
# pIC50 (FF) per entry
STUDY_SYSTEM: UniProtKB P51449
EXPERIMENT_NOTES: RORγ Gal4 Reporter Gene Assay in 293T cells (firefly and renilla luciferase)
Format: cell-based, human
REPORTED_METRIC: pIC50 (FF)

Cc1c(C(=O)NC2COC2)cc(-c2cc(C(C)(C)C)nc(C(F)(F)F)c2)n1CC1CCCCC1 | 6.5/6.5/6.5
Cc1c(C(=O)NCC(C)(C)O)cc(-c2cc(C(C)(C)O)cc(C3(C)CC3)c2)n1CC1CCCCC1 | 6.0/6.8/6.8
Cc1c(C(=O)NC2COC2)cc(-c2cc(C(=O)N(C)C(C)(C)C)cc(C(F)(F)F)c2)n1CC1CCCCC1 | 5.7/6.6/6.7
Cc1c(C(=O)NCCOCCO)cc(-c2cc(C(C)(C)C)cc(C(C)(C)C)c2)n1CC1CCCCC1 | 6.2/6.7/6.7
Cc1c(C(=O)NC2CCOCC2)cc(-c2ccc(S(=O)(=O)N(CC(F)(F)F)C(C)(C)C)c(C(C)(C)C)c2)n1CC1CCCCC1 | 5.9/8.0/7.9
Cc1c(C(=O)NC2CC(=O)C2)cc(-c2cc(C(C)(C)C)c3c(c2)C2(CCO3)CC2)n1CC1CCCCC1 | 6.2/7.0/6.9
COCC(C)(C)NS(=O)(=O)c1ccc(-c2cc(C(=O)NC3CCOCC3)c(C)n2CC2CCCCC2)cc1C(F)(F)F | 6.2/7.2/7.3

----------
STUDY_SYSTEM: UniProt P51449
Sequence (P51449 1-518): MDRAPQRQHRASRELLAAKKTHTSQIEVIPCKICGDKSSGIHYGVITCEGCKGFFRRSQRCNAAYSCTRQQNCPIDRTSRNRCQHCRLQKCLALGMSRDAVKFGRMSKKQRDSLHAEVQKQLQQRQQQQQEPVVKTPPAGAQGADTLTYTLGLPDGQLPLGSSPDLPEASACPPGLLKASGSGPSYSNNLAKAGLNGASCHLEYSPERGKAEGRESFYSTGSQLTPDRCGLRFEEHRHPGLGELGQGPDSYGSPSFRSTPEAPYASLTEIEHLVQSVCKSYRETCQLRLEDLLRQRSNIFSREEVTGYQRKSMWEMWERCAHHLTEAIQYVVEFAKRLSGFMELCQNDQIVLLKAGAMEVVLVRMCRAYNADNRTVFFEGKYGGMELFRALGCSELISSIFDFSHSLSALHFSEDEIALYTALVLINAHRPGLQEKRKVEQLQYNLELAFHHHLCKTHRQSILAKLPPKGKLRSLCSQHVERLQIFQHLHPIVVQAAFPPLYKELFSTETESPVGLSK
EXPERIMENT_NOTES: RORγ Gal4 Reporter Gene Assay in 293T cells (firefly and renilla luciferase)
Assay type: cell-based, human
REPORTED_METRIC: pIC50 (REN)

Cc1c(C(=O)NC2CCOCC2)cc(-c2cc(C(C)(C)C)cc(C3(C)CC3)c2)n1CC1CCCCC1 [1/84] | 6.8/7.6/7.6
COC(C)(C)c1cc(-c2cc(C(=O)NC3CCOCC3)c(C)n2CC2CCCCC2)cc(C2(C)CC2)c1 [1/44] | 6.3/7.4/7.3
CC(C)(C)NS(=O)(=O)c1ccc(-c2cc(C(=O)NC3CCOCC3)c(Cl)n2CC2CCCCC2)c2ccccc12 [22/1] | 6.8/8.4/8.4
COC(C)(C)CNC(=O)c1cc(-c2cc(C(C)(C)C)c3c(c2)C2(CCO3)CC2)n(CC2CCCCC2)c1C [1/97] | 6.6/7.1/7.0
Cc1c(C(=O)NCCS(N)(=O)=O)cc(-c2cc(C(C)(C)C)cc(C(C)(C)C)c2)n1CC1CCCCC1 [1/9] | 6.5/6.6/6.7
Cc1c(C(=O)N2CCOCC2)cc(-c2ccc(S(=O)(=O)NC(C)(C)C)c(C(F)(F)F)c2)n1CC1CCCCC1 [17/198] | 6.3/6.8/6.9
COCC1(CNC(=O)c2cc(-c3cc(C(C)(C)C)cc(C4(C)CC4)c3)n(CC3CCCCC3)c2C)COC1 [17/47] | 6.7/7.3/7.4
Cc1c(C(=O)NN2CCOCC2)cc(-c2cc(C(C)(C)C)c3c(c2)C2(CCO3)CC2)n1CC1CCCCC1 [17/9] | 6.2/6.8/6.8
Cc1c(C(=O)NC2COC2)cc(-c2cc(C(C)(C)C)cc(C(C)(C)C)c2)n1S(=O)(=O)N1CCCC(C)C1 (stereo not drawn) [7/2] | 6.6/7.0/7.0
Cc1c(C(=O)NC2CCOCC2)cc(-c2ccc(S(=O)(=O)NC(C)(C)C)c(C(C)(C)C)c2)n1CC1CCCCC1 [1/131] | 6.3/7.8/7.8
Cc1c(C(=O)NC2COC2)cc(-c2cc(C(C)(C)C)cc(C(C)(C)CF)c2)n1CC1CCCCC1 [17/42] | 5.7/7.5/7.6
Cc1c(C(=O)NCC2(CCO)COC2)cc(-c2cc(C(C)(C)C)cc(C(C)(C)C)c2)n1CC1CCCCC1 [17/44] | 6.2/6.1/6.1
Cc1c(C(=O)NC2CCOCC2)cc(-c2ccc(S(=O)(=O)NC(C)(C)C)c(C(F)F)c2)n1CC1CCCCC1 [17/115] | 6.5/7.9/8.0
Cc1c(C(=O)NCC(C)(C)NS(C)(=O)=O)cc(-c2cc(C(C)(C)C)cc(C3(C)CC3)c2)n1CC1CCCCC1 [17/67] | 6.6/7.7/7.5
Cc1c(C(=O)NC2C[S+]([O-])C2)cc(-c2ccc(S(=O)(=O)NC(C)(C)C)c(C(C)(C)C)c2)n1CC1CCCCC1 (stereo not drawn) [2/1] | 6.1/6.5/6.5
